- target-desc: T1, UNK ZnF1-6 (called full-length) (human, UniProt Q9C0B0 30-357)
- T1 sequence: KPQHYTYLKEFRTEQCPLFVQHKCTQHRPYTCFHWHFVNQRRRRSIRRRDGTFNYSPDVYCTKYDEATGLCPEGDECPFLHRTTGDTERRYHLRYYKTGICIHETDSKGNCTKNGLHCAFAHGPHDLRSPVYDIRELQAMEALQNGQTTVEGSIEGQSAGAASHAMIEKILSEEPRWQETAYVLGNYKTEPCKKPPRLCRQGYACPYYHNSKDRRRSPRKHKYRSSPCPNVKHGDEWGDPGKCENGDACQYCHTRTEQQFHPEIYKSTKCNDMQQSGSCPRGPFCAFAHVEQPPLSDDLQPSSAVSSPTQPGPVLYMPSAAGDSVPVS
- method-notes: nsRBNS (natural sequence RNA bind-n-seq); RBNS binding buffer (assumed for nsRBNS): 25 mM Tris pH 7.5, 150 mM KCl, 3 mM MgCl2, 0.01% Triton X-100, 500 ug/ml BSA, 20 U/ml SUPERase-In, 4 C; UNK is unkempt and MSI1 is Musashi-1; names of the RNAs are library labels; protein concentration not given here; high values mean tight binding
Over roughly 5,800 sequences, “enrichment r” has its median near 0.68; the highest 2% begin near 11. Only a selection was taken, and the highest values are over-represented in it overall.
Catalogue of binders with associated binding signal
Please respond with the number in enrichment R and leave the unit unwritten.

[[record]]
binder = "chr14:44928120:44928223:-|3pUTR|ENSG00000179454|unk|total|mutant (ssRNA) RNA: GGGAGUUCUACAGUCCGACGAUCCCGUACAGCAGGCCUCCCAGUGCUGAUGUAAAUAUUUGAGCAGUGUUCCGUACCAUUCUCCGUGCAUAUUAAUUUUUUUAUAUAUCCUUAUAAUUUCCGUUUUUUAAGAUCUUUGCUUUUCAACAGAGGAUUGAGCAUCA"
endpoint_result = 7.31


# evaluate next
So what's the measured binding signal for this one? chr14:44928120:44928223:-|3pUTR|ENSG00000179454|unk|FALSE|unique (ssRNA) RNA: GGGAGUUCUACAGUCCGACGAUCUAGUACAGCAGGCCUCCCAGUGCUGAUGUAAAUAUUUGAGCAGUGUUUAGUACCAUUCUUAGUGCAUAUUAAUUUUUUUAUAUAUCCUUAUAAUUUUAGUUUUUUAAGAUCUUUGCUUUUCAACAGAGGAUUGAGCAUCA 213

Hey, just so you know, these numbers are from paper PMC12136788.
